Cited source for all entries: patent US12304899B2

target: Human coagulation factor (F)XI (Homo sapiens, UniProt P03951); construct: Enzyme Research Laboratories (FXIIa) HCXI-150 (FXI); HFXIIa (FXIIa); test: Inhibition of FXIIa mediated activation of FXI (activation of human Factor XI to XIa by human Factor α-XIIa); settings: human FXI pre-incubated with compound 30 min at 22° C., activation by human FXIIa 60 min, z-GPR-AFC substrate fluorescence, 4 parameter logistic fit; read-out: Inhibition of FXIIa meditated activation of FXI
Sequence (P03951 19-625): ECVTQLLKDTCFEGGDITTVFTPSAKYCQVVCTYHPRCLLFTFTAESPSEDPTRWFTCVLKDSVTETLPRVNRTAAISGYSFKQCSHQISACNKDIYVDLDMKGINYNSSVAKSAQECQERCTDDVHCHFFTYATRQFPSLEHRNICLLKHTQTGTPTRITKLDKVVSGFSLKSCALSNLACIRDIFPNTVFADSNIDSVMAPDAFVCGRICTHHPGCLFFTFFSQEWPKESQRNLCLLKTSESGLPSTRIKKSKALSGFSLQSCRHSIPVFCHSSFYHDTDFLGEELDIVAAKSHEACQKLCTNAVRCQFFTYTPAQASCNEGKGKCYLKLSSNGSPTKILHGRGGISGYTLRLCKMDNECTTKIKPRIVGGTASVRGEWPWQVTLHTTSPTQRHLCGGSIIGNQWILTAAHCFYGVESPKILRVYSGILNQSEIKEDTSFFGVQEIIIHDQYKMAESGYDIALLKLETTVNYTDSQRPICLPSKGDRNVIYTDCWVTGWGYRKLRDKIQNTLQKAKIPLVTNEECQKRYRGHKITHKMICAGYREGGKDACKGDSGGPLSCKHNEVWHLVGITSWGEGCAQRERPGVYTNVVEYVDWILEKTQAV
pEC50: −log10 of the molar value.
We begin with a simple list: items and their reported pEC50.
recorded-metric: pEC50

{"columns": ["compound", "number"],
 "data": [
  ["N#Cc1ccc(F)cc1COc1ccc2nc(C(=O)N3CCC(C#N)(c4ccccc4)CC3)cc(C(=O)N3CCCCC3)c2c1", 7.35],
  ["O=C(c1cc(C(=O)N2CCCCC2)c2cc(OCc3ccc4nnsc4c3)ccc2n1)N1CCC(n2cccn2)CC1", 7.31],
  ["N#CC1(n2cccn2)CCN(C(=O)c2cc(C(=O)N3CCCCC3)c3cc(OCc4ccc5snnc5c4)ccc3n2)CC1", 7.99],
  ["N#CC1(c2ccccc2)CCN(C(=O)c2cc(C(=O)N3CCCCC3)c3cc(OCc4nc5ccccc5s4)ccc3n2)CC1 [Example 60]", 7.42]
]}
